Tested on: Hh signaling
method-summary: Gli luciferase reporter assay in NIH3T3-12Gli cells
Assay type: cell-based
experimental-setup: 36 h, read-out: IC50, Hh signaling induced by Shh-N conditioned medium (luciferase reporter)
observable: pIC50
One number for each entry, as −log10 of the molar value.

[
  {
    "structure-smiles": "CS(=O)(=O)c1ccc(C(=O)Nc2ccc(Cl)c(-c3ccccn3)c2)c(Cl)c1",
    "reported-measurement": 7.71
  }
]

query: Item O=C(CCCCCCC(=O)Nc1ccccc1)NO has what recorded pIC50?
result: 6.17
